tested on: ALL-PO; test: cells; format: functional, cell-based, Homo sapiens; conditions: Homo sapiens, ALL-PO;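 also: growth inhibition of ALL-PO cells, read out by a cell viability assay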
Description: SANGER: Inhibition of human ALL-PO cell growth in a cell viability assay.
REPORTED PROPERTY: pIC50
The read-out pIC50 is expressed as -log10 of concentration in moles per litre.

Measured on ALL-PO, O=C(NCCCNc1nc(Nc2cccc(NC(=O)N3CCCC3)c2)ncc1I)c1cccs1 has a documented pIC50 of 5.97

Measured on ALL-PO, CCCCCCCCCCCC1=C(O)C(=O)C=C(O)C1=O has a documented pIC50 of 5.44

Measured on ALL-PO, COc1ccc(-c2cc3nccn3c(Nc3ncccc3C(N)=O)n2)cc1OC has a documented pIC50 of 6.25

====

Consider the following molecules; for each one, report its pIC50.
test system: U-266; assay: cells; format: functional, cell-based, Homo sapiens; details: Homo sapiens, U-266
Description: SANGER: Inhibition of human U-266 cell growth in a cell viability assay.
The read-out pIC50 is expressed as -log10 of concentration in moles per litre.

The recorded pIC50 for entry COc1cc(N2CCC(N3CCN(C)CC3)CC2)ccc1Nc1ncc(Cl)c(Nc2ccccc2S(=O)(=O)C(C)C)n1 equals 5.76

The recorded pIC50 for entry Nc1ccccc1NC(=O)c1ccc(CNC(=O)OCc2cccnc2)cc1 equals 5.55

====

test system: EFO-21; assay: cells; assay type: functional, cell-based; settings: Homo sapiens;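 also: growth inhibition of EFO-21 cells measured with a viability assay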
Description: SANGER: Inhibition of human EFO-21 cell growth in a cell viability assay.
Consider the following compounds; for each one, report its IC50.

The recorded IC50 for entry OC[C@H](Cc1ccccc1)Nc1nc(Oc2ccc3c(c2)CCC3)nc2c1ncn2Cc1ccc(-c2ccccc2)cc1 equals > 10200 nM

The recorded IC50 for entry CN(NC(=O)CC(=O)NN(C)C(=S)c1ccccc1)C(=S)c1ccccc1 [ELESCLOMOL] equals 149 nM

The recorded IC50 for entry NC(=O)Nc1cc(-c2cccc(F)c2)sc1C(=O)N[C@H]1CCCNC1 [AZD-7762] equals > 2000 nM

====

Consider the following compounds; for each one, report its pIC50.
tested on: SK-N-DZ; assay: cells; type: functional, cell-based, Homo sapiens; conditions: Homo sapiens, SK-N-DZ; read-out: IC50;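 also: growth inhibition of the cancer cell line, read out through a viability assay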
Description: SANGER: Inhibition of human SK-N-DZ cell growth in a cell viability assay.
pIC50: −log10 of the molar value.

The recorded pIC50 for entry CCCCCCCCCCCC1=C(O)C(=O)C=C(O)C1=O equals < 4.49

The recorded pIC50 for entry CC1(C)CCC(c2ccc(Cl)cc2)=C(CN2CCN(c3ccc(C(=O)NS(=O)(=O)c4ccc(N[C@H](CCN5CCOCC5)CSc5ccccc5)c(S(=O)(=O)C(F)(F)F)c4)cc3)CC2)C1 equals < 5.70

The recorded pIC50 for entry OC[C@H](Cc1ccccc1)Nc1nc(Oc2ccc3c(c2)CCC3)nc2c1ncn2Cc1ccc(-c2ccccc2)cc1 equals 5.65

The recorded pIC50 for entry CC1=C(/C=C/C(C)=C/C=C/C(C)=C/C(=O)O)C(C)(C)CCC1 equals < 5.00

The recorded pIC50 for entry O=C(NCCCNc1nc(Nc2cccc(NC(=O)N3CCCC3)c2)ncc1I)c1cccs1 equals < 5.30

The recorded pIC50 for entry O=C1NC(=O)c2c1c(-c1ccccc1Cl)cc1[nH]c3ccc(O)cc3c21 equals < 5.70

The recorded pIC50 for entry C/C(=C\c1csc(C)n1)[C@@H]1C[C@@H]2O[C@]2(C)CCC[C@H](C)[C@H](O)[C@@H](C)C(=O)C(C)(C)[C@@H](O)CC(=O)O1 equals 8.12

The recorded pIC50 for entry Cc1ccc(-n2nc(C(C)(C)C)cc2NC(=O)Nc2ccc(OCCN3CCOCC3)c3ccccc23)cc1 equals < 5.00

The recorded pIC50 for entry COc1ccc(-c2cc3nccn3c(Nc3ncccc3C(N)=O)n2)cc1OC equals < 5.10

The recorded pIC50 for entry Nc1ccccc1NC(=O)c1ccc(CNC(=O)OCc2cccnc2)cc1 equals 5.90
